# tested target: Escherichia coli Topoisomerase IV (Escherichia coli, UniProt P0AFI2+P20083)
# Sequence (P20083 whole entry): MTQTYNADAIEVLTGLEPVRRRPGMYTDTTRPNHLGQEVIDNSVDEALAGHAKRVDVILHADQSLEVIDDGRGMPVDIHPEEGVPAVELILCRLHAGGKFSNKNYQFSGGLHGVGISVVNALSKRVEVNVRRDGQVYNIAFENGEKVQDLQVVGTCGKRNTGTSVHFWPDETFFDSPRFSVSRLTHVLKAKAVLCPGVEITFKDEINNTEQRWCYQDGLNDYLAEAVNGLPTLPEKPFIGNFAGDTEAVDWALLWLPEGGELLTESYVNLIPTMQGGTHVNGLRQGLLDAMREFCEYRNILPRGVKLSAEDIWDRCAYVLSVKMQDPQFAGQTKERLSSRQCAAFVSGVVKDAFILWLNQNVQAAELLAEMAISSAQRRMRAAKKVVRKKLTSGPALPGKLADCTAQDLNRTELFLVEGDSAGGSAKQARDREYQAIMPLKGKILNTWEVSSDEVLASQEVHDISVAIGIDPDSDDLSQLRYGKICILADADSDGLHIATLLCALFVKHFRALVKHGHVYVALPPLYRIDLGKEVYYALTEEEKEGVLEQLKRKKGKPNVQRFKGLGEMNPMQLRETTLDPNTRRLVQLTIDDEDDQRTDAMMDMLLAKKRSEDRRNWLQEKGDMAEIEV
# Sequence (P0AFI2 whole entry): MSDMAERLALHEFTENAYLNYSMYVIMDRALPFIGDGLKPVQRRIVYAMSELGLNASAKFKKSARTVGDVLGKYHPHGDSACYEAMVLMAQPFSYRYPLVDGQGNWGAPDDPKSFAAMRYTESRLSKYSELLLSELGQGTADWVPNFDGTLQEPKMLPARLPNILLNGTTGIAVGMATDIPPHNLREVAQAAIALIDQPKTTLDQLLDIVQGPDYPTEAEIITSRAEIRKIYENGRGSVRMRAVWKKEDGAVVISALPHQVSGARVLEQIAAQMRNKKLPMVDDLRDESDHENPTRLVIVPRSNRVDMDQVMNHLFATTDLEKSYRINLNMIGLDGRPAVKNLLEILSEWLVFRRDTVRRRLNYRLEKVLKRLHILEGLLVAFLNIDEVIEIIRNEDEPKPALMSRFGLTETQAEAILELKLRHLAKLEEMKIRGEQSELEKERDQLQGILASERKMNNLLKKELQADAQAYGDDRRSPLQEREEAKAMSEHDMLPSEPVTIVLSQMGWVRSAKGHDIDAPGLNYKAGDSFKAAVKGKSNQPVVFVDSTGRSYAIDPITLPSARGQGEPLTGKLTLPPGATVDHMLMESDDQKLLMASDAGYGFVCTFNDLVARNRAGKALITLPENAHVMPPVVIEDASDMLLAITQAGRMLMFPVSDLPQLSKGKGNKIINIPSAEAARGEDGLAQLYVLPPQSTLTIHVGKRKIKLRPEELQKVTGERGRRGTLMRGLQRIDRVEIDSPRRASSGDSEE
# assay name: Topoisomerase IV inhibition (decatenation kit), Exp. Ex. 2-3
# assay conditions: decatenation of kDNA, 37° C., 30 minutes; read-out: IC50 (E. coli topoisomerase IV inhibitions)
experimental readout: IC50 (µM)
Expressed in µM, but write only the number.

In: Returns the measured IC50 for the input compound. Input: CCCc1ccc(C(=O)OC[C@H]2O[C@@H](Oc3c(-c4ccc(O)c(O)c4)oc4cc(O)cc(O)c4c3=O)[C@H](OC(=O)c3ccc(CCC)cc3)[C@@H](O)[C@H]2O)cc1 [Compound 14b]
Out: 8.89

In: Next record, please: O=C(CCc1ccc(F)cc1)OC[C@H]1O[C@@H](Oc2c(-c3ccc(O)c(O)c3)oc3cc(O)cc(O)c3c2=O)[C@H](OC(=O)CCc2ccc(F)cc2)[C@@H](O)[C@H]1O [Compound 14m]
Out: 7.52

In: Next record, please: O=C(CCCc1ccc(F)cc1)OC[C@H]1O[C@@H](Oc2c(-c3ccc(O)c(O)c3)oc3cc(O)cc(O)c3c2=O)[C@H](OC(=O)CCCc2ccc(F)cc2)[C@@H](O)[C@H]1O [Compound 14j]
Out: 8.96

In: Next record, please: O=C(OC[C@H]1O[C@@H](Oc2c(-c3ccc(O)c(O)c3)oc3cc(O)cc(O)c3c2=O)[C@H](OC(=O)c2ccc(F)cc2)[C@@H](O)[C@H]1O)c1ccc(F)cc1 [Compound 14c]
Out: 7.02
